The measurements presented in this section are drawn from PubChem BioAssay (NCI).

# maps each entry to its TGI
System: COLO 205 colon
assay explanation: NCI tumour cell line growth inhibition, 48 h
Starred links: 1 amine or outer side, 2 acyl side, 3 side chain; linkers in the order of their positions; H or OH if unused. Positions of bridges follow the written chain, without caps; N, C: chain ends. Non-standard residues stand in square brackets, D forms with d. Residues, ends and D or L forms follow the SMILES beside them. Chains are numbered I, II in the order given. Actinocin(1to9) = Cc1c2oc3c(C)ccc(C(=O)[*:2])c3nc-2c(C(=O)[*:1])c(N)c1=O; NMeV = CN[CH](C(=O)O)C(C)C; Sar = CNCC(=O)O

Past entries and their recorded results:
| molecule | measurement label | test value |
| --- | --- | --- |
| c1ccc2c(Cc3[nH]c4ccccc4c3Cc3c[nH]c4ccccc34)c[nH]c2c1 | TGI | 3.99 µM |
| COC[C@@H](N=C1NC(=O)/C(=C/c2ccc3ncccc3c2)S1)c1ccccc1 | TGI | > 25 µM |
| CCOC(=O)C1Cc2c(cc3c4c(cccc24)N(C(C)=O)C3)N(C)C1 (centres undefined) | TGI | > 100 µM |
| O=S(=O)(NCCCNc1nccc(-c2c(-c3ccc(O)cc3)nc3sccn23)n1)c1ccc(F)cc1 | TGI | 2.19 µM |

The observed TGI for C/C(=N\NC(=S)N1CCCCC1)c1ccccn1 when tested with COLO 205 colon stands at 0.041 µM

The observed TGI for COc1ccc(C/C(=N/O)C(=O)NCCc2cc(Br)c(OCCCN(C)C)c(Br)c2)cc1Br when tested with COLO 205 colon stands at 40.2 µM

The observed TGI for CCC(C)C1NC(=O)C(NC(=O)c2c3nc4c(C(=O)NC5C(=O)NC(C(C)CC)C(=O)N6CCCC6C(=O)N(C)CC(=O)N(C)C(C(C)C)C(=O)OC5C)ccc(C)c4oc-3c(C)c(=O)c2N)C(C)OC(=O)C(C(C)C)N(C)C(=O)CN(C)C(=O)C2CCCN2C1=O (centres undefined) (I: TIP[Sar][NMeV] / II: TIP[Sar][NMeV]; ester I:1-I:C, II:1-II:C; linker I:N-II:N via Actinocin(1to9); configuration not given here) when tested with COLO 205 colon stands at 0.00309 µM

The observed TGI for COC(=O)C(NC(=O)C(CC(=O)OC(C)(C)C)NC(=O)OC(C)(C)C)C(O)c1ccccc1 (centres undefined) when tested with COLO 205 colon stands at > 100 µM

The observed TGI for COc1ccc(/C=C(/C#N)C(N)=O)c(OC)c1 when tested with COLO 205 colon stands at > 100 µM

The observed TGI for CC(C)(O)/C=C\P(=O)(O)O when tested with COLO 205 colon stands at > 100 µM

The observed TGI for CCSCC1CC(O)(c2ccccc2)CC(c2ccc(F)cc2)O1 (centres undefined) when tested with COLO 205 colon stands at 2.87 µM

The observed TGI for O=C(O)CN1C=C(C(=O)c2cc3ccccc3n2S(=O)(=O)c2ccccc2)CCC1 when tested with COLO 205 colon stands at 42.5 µM

The observed TGI for OCCN1CCN(CCCN2c3ccccc3Sc3ccc(Cl)cc32)CC1 when tested with COLO 205 colon stands at 3 µM

The observed TGI for CC(=O)Nc1ccc2c(c1)C(c1ccccc1Cl)=Nc1c(n[nH]c1C)N2 when tested with COLO 205 colon stands at > 22 µM

The observed TGI for COC(=O)/C=C1\C(=O)N(C(C)=O)c2ccc(Br)cc21 when tested with COLO 205 colon stands at 27.8 µM

The observed TGI for COCC1CCCN1c1ccc(C=N/C(C#N)=C(\N)C#N)cc1 (centres undefined) when tested with COLO 205 colon stands at > 100 µM
